Taken from PubChem BioAssay (NCI).

TGI values by entry
# Test system: CAKI-1 renal
# experiment_notes: NCI tumour cell line growth inhibition, 48 h

As a guide, the following entries are already answered.
Cc1c(C(=O)Nc2ccccc2)nnn1-c1ccnc2cc(C(F)(F)F)ccc12 : > 100 µM
C=CCc1cccc2cc(C(=O)Nc3ccc(C)cc3)c(=N)oc12 : > 100 µM
COn1oc(=O)c2ccccc21 : > 100 µM
O=C(Nc1cccc(C(F)(F)F)c1)c1ccc(NC2=C(Cl)C(=O)N(Cc3ccccc3)C2=O)cc1 : 3.24 µM
CCCS(=O)(=O)Nc1cccc(Nc2ncnc3cc(NC(=O)CCl)ccc23)c1Cl : 5.95 µM

Query block: For the compound shown here, O=C(O[C@H]1[C@@H]2C=CO[C@@H](OC3OC(CO)C(O)C(O)C3O)[C@@H]2[C@@]2(CO)O[C@@H]12)c1ccc(O)c(O)c1 (stereo not given in full) , give the reported TGI.
Result block: > 100 µM

Query block: For the compound shown here, COc1ccc(-c2cc(=O)c3cc(C)c(C)c(C(=O)O)c3o2)cc1 , give the reported TGI.
Result block: > 100 µM

Query block: For the compound shown here, COc1ccc2nc3cc([N+](=O)[O-])ccc3c(Nc3ccc(S(=O)(=O)Nc4ncccn4)cc3)c2c1 , give the reported TGI.
Result block: > 100 µM

Query block: For the compound shown here, COc1ccccc1NC(=O)CC(=O)n1nc(C)c(N=Nc2ccccc2Cl)c1C , give the reported TGI.
Result block: > 100 µM

Query block: For the compound shown here, CCOC(=O)CNC(=O)OCc1ccccc1 , give the reported TGI.
Result block: > 100 µM

----------
# Test system: DU-145 prostate
# experiment_notes: NCI tumour cell line growth inhibition, 48 h
measured_attribute: TGI

As a guide, the following entries are already answered.
C=CCc1cccc2cc(C(=O)Nc3ccc(C)cc3)c(=N)oc12 : > 100 µM
CCCCc1nc(C)oc1C(C)C : > 100 µM
COc1cc2c(/C=C3/C(=O)Nc4ccc(O)cc43)c(Cl)n(Cc3cc(OC)c(OC)c(OC)c3)c2cc1C : > 30.3 µM

Query block: For the compound shown here, COc1ccc2nc3cc([N+](=O)[O-])ccc3c(Nc3ccc(S(=O)(=O)Nc4ncccn4)cc3)c2c1 , give the reported TGI.
Result block: > 100 µM

Query block: For the compound shown here, O=C1c2ccccc2C(=O)c2c1oc1c2c(=O)[nH]c2ccc(Cl)cc21 , give the reported TGI.
Result block: 0.781 µM

----------
TGI values by entry
# System: 786-0 renal
# experiment_notes: NCI tumour cell line growth inhibition, 48 h
Answer format: numeric, µM implied, no suffix.

CCC[CH2][Sn]1([CH2]CCC)[O]CC[S]1 : 1.7
C/C(=C\C(C[C@](C)(O)C(O)CCC#C[Si](C)(C)C)S(=O)(=O)c1ccccc1)CC/C=C/CO[Si](C)(C)C(C)(C)C (stereo partly specified) : 31.5

Now look at this entry.
Query block: For the compound shown here, Cc1ccc2[nH]c(O)c(N=Nc3ccccc3[N+](=O)[O-])c2c1 , give the reported TGI.
Result block: 3.6

----------
# Tested on: DMS 114 small cell lung
# experiment_notes: NCI tumour cell line growth inhibition, 48 h
TGI values by entry
Answer format: numeric, µM implied, no suffix.

CCC[CH2][Sn]1([CH2]CCC)[O]CC[S]1 : 1.26

Now look at this entry.
Query block: For the compound shown here, CN1c2c(nc(N)[nH]c2=O)NCC1CCNc1ccc(C(=O)NC(CCC(=O)O)C(=O)O)cc1 (stereo not given) , give the reported TGI.
Result block: 1770

----------
# Test system: A549 NSCLC
# experiment_notes: NCI tumour cell line growth inhibition, 48 h
measured_attribute: GI50

As a guide, the following entries are already answered.
CCN1C(=O)N(CC)C2C1NN=c1s/c(=C\c3ccc(C(F)(F)F)cc3)c(=O)n12 (stereo unspecified) : 0.395 µM
O=C(Nc1ccccc1Cl)c1ccc(NC2=C(Cl)C(=O)N(C3CCCCC3)C2=O)cc1 : 13.3 µM
CCCCc1n(Cc2ccc3ccccc3n2)cc[n+]1Cc1ccc2ccccc2n1 : 4.75 µM
COc1ccc(C2CC(c3ccc(OC)cc3O)=NN2c2ccc(S(N)(=O)=O)cc2)cc1 (stereo unspecified) : 6.36 µM
C#Cc1cccc(NC(=O)c2cccc(NC(=O)CCl)c2)c1 : 21.6 µM

Now look at this entry.
Query block: For the compound shown here, Cc1nc2ccccc2c(/C=C/c2ccccc2)c1C(=O)/C=C/c1ccc(C(F)(F)F)cc1 , give the reported GI50.
Result block: 2.03 µM

----------
# Tested on: K-562 leukemia
# experiment_notes: NCI tumour cell line growth inhibition, 48 h; in the data active = GI50 below about 0.43 µM; inactive = the rest
Field 'call' accepts 1 (active), 0 (inactive)

Worked examples, 3 compounds total:
CCC[CH2][Sn]1([CH2]CCC)[O]CC[S]1 : 1
CC1(C)N=c2cc3c(cc2N1c1ccc(Cl)cc1)=Nc1ccccc1N3c1ccc(Cl)cc1 : 0
FC(F)(F)c1cc(NC(=S)N2c3ccccc3-n3cccc3C2c2cccnc2)cc(C(F)(F)F)c1 (centres undefined) : 0

Query block: Could you check what this test reported for O=C(CCCC(=O)N/N=C/c1cc(Cl)ccc1O)N/N=C\c1cc(Cl)ccc1O ?
Result block: 0

----------
TGI values by entry
# Test system: MALME-3M melanoma
# experiment_notes: NCI tumour cell line growth inhibition, 48 h

Query block: For the compound shown here, COc1nc2ccc(CNc3ccc(C(=O)NC(CCC(=O)O)C(=O)O)cc3)cc2nc1OC (configuration not stated) , give the reported TGI.
Result block: > 100 µM

Query block: For the compound shown here, COc1ccc(C(=O)c2nc3ccccc3nc2N2CCN(c3ccccc3)CC2)cc1OC , give the reported TGI.
Result block: > 100 µM

Query block: For the compound shown here, Brc1ccc(C=NC23CC4CC(CC(C4)C2)C3)cc1 , give the reported TGI.
Result block: > 100 µM

Query block: For the compound shown here, Cc1c[nH]c(=O)n(Cc2nnc(CCC(=O)c3nc4ccccc4[nH]3)o2)c1=O , give the reported TGI.
Result block: > 100 µM

Query block: For the compound shown here, CCN(CCO)CCCC(C)Nc1ccnc2cc(Cl)ccc12 (configuration not stated) , give the reported TGI.
Result block: > 100 µM

Query block: For the compound shown here, [N-]=[N+]=Nc1c(-c2ccccc2)c(=O)n(-c2ccccc2)c2ccccc12 , give the reported TGI.
Result block: > 100 µM

Query block: For the compound shown here, O=C(O)CN1C(=O)CN=C(c2ccccn2)c2cc(Cl)ccc21 , give the reported TGI.
Result block: > 100 µM

Query block: For the compound shown here, C=CCn1c(=O)c(Br)nn(CCOCP(=O)(OCC)OCC)c1=O , give the reported TGI.
Result block: > 100 µM

Query block: For the compound shown here, O=C1CCCCN1 , give the reported TGI.
Result block: > 1120 µM

Query block: For the compound shown here, CC1(C)N=c2cc3c(cc2N1c1ccc(Cl)cc1)=Nc1ccccc1N3c1ccc(Cl)cc1 , give the reported TGI.
Result block: > 100 µM

Query block: For the compound shown here, COc1ccc(N/N=C/C2=CC(C)(C)C(C#N)(C#N)C(O)=C2C#N)cc1 , give the reported TGI.
Result block: > 100 µM

Query block: For the compound shown here, C1C[OH+]CCNCC[OH+]CC[OH+]CCN1.N.[Cl-].[Pt+4] , give the reported TGI.
Result block: > 100 µM

----------
# Tested on: MALME-3M melanoma
# experiment_notes: NCI tumour cell line growth inhibition, 48 h; in the data active = GI50 below about 0.43 µM; inactive = the rest
Field 'call' accepts active, inactive

Worked examples, 5 compounds total:
CC(=O)[CH-]C(C)=O.CC(=O)[CH-]C(C)=O.[Cl-].[O]=[V] : inactive
CC1(C)CCc2c(c(N=Nc3ccccc3F)c3ccccc3c2O)O1 : inactive
COc1cc2c(c(OC)c1OC)-c1c(c3ccc([N+](=O)[O-])cc3c(=O)n1CCCBr)C2=O : inactive
COc1ccc2c(c1)C(=O)c1c-2c(N2CCN(C(=O)CCNCCNCCN)CC2)nc2ccccc12 : inactive
COc1cc2c3c(n(CCCn4cncn4)c(=O)c2cc1OC)-c1cc2c(cc1C3=O)OCO2 : inactive

Query block: Could you check what this test reported for CCCS(=O)(=O)Nc1cccc(Nc2ncnc3cc(NC(=O)CCl)ccc23)c1Cl ?
Result block: inactive

Query block: Could you check what this test reported for CCc1cccc(NC(=O)Nc2ccc(Oc3ccc4nc(NC(=O)OC)[nH]c4c3)cc2)c1 ?
Result block: inactive

Query block: Could you check what this test reported for O=C1/C(=C/c2ccc(F)cc2)CN(C(=O)C(Cl)Cl)C/C1=C\c1ccc(F)cc1 ?
Result block: active

Query block: Could you check what this test reported for CC[O-].CC[O-].O=C([CH-]C(=O)c1ccccc1)CCCCCCC(=O)[CH-]C(=O)c1ccccc1.[Ti+4] ?
Result block: inactive
